Assay Procedure: Aqueous solubility of the compound in PBS buffer at pH 7.4 at 200 uM incubated for 2 hrs under shaking condition by miniaturized shake flask method
Format: physicochemical
Collected solubility thermodynamic at 2 h, 200 µM values appear next to each entry.
Write the value in µM as a bare number.

# annotated cases, reported solubility thermodynamic at 2 h, 200 µM shown
> print(dat)
                           structure.smiles                            endpoint.name  recorded.number
1  Cc1nn(C(C)(C)C)c2nc(C3CC3)cc(C(=O)N3CCNc4ccccc43)c12  solubility thermodynamic at 2 h, 200 µM              3.5
2  COc1nn(C(C)C)c2nc(C3CC3)cc(C(=O)N3CCOc4ccncc43)c12  solubility thermodynamic at 2 h, 200 µM              161
3  Cc1nn(C(C)(C)C)c2nc(C3CC3)cc(C(=O)N3CCN(C)c4ccccc43)c12  solubility thermodynamic at 2 h, 200 µM                3

Name the recorded solubility thermodynamic at 2 h, 200 µM of the item Cc1nn(C(C)(C)C)c2nc(C3CC3)cc(C(=O)N3CCOc4ccncc43)c12 in your answer.
69

Name the recorded solubility thermodynamic at 2 h, 200 µM of the item Cc1nn(C(C)(C)C)c2nc(C3CC3)cc(C(=O)N3CCCc4ccccc43)c12 in your answer.
2.8

Name the recorded solubility thermodynamic at 2 h, 200 µM of the item Cc1nn(C(C)C)c2nc(C3CC3)cc(C(=O)N3CCOc4ccncc43)c12 in your answer.
199

Name the recorded solubility thermodynamic at 2 h, 200 µM of the item COc1nn(C(C)(C)C)c2nc(C3CC3)cc(C(=O)N3CCOc4ccncc43)c12 in your answer.
19

Name the recorded solubility thermodynamic at 2 h, 200 µM of the item Cc1nn(C(C)C)c2nc(C3CC3)cc(C(=O)N3CCOc4ccccc43)c12 in your answer.
10

Name the recorded solubility thermodynamic at 2 h, 200 µM of the item Cc1nn(C(C)(C)C)c2nc(C3CC3)cc(C(=O)N3CCOc4ccc(F)cc43)c12 in your answer.
2.8

###

System Under Test: CYP3A4 (Homo sapiens, UniProt P08684)
Sequence (P08684 whole entry): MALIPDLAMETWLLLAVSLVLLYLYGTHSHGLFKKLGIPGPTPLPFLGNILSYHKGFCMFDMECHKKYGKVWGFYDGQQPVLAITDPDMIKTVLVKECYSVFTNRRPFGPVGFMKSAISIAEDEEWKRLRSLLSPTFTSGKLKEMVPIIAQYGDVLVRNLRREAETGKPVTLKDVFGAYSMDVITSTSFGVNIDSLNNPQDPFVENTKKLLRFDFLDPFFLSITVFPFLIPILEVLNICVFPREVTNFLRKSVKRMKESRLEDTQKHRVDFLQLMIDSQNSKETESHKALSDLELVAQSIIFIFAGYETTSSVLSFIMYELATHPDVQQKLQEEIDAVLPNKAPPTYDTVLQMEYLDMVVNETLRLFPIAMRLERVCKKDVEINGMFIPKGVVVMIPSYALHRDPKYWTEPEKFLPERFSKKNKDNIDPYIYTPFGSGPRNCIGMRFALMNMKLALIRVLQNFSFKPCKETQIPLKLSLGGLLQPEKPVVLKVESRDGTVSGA
Assay Procedure: Inhibition of CYP3A4 (unknown origin) at 1 uM relative to control
Assay type: ADME
Endpoint Name: inhibition at 1 µM (%)
Write the value in % as a bare number.

Name the recorded inhibition at 1 µM of the item Cc1nn(C(C)(C)C)c2nc(C3CC3)cc(C(=O)N3CCOc4ccncc43)c12 in your answer.
66.2

###

Collected hepatocyte CLint at 1 µM values appear next to each entry.
Assay Procedure: Intrinsic clearance in rat hepatocytes at 1 uM measured per million cells for 90 mins by LC-MS/MS analysis
Format: ADME, cell-based, Hepatocyte
Test Context: read-out: CLH

# annotated cases, reported hepatocyte CLint at 1 µM shown
> print(dat)
                            structure.smiles             endpoint.name                 result
 1  Cc1nn(C(C)(C)C)c2nc(C3CC3)cc(C(=O)N3CCN(C)c4ccccc43)c12  hepatocyte CLint at 1 µM    65 µL/min/1e6 cells
 2  Cc1nn(C(C)(C)C)c2nc(C3CC3)cc(C(=O)N3CCNc4ccccc43)c12  hepatocyte CLint at 1 µM   123 µL/min/1e6 cells
 3  CC(C)(C)n1nc(Cl)c2c(C(=O)N3CCOc4ccccc43)cc(C3CC3)nc21  hepatocyte CLint at 1 µM    34 µL/min/1e6 cells
 4  COc1nn(C(C)(C)C)c2nc(C3CC3)cc(C(=O)N3CCOc4ccncc43)c12  hepatocyte CLint at 1 µM    87 µL/min/1e6 cells
 5  Cc1nn(C(C)C)c2nc(C3CC3)cc(C(=O)N3CCOc4ccncc43)c12  hepatocyte CLint at 1 µM    30 µL/min/1e6 cells
 6  COc1nn(C(C)C)c2nc(C3CC3)cc(C(=O)N3CCOc4ccncc43)c12  hepatocyte CLint at 1 µM  > 92 µL/min/1e6 cells
 7  Cc1nn(C(C)(C)C)c2nc(C3CC3)cc(C(=O)N3CCOc4ccncc43)c12  hepatocyte CLint at 1 µM    26 µL/min/1e6 cells
 8  Cc1nn(C(C)(C)C)c2nc(C3CC3)cc(C(=O)N3CCCc4ccccc43)c12  hepatocyte CLint at 1 µM    45 µL/min/1e6 cells
 9  Cc1nn(C(C)(C)C)c2nc(C3CC3)cc(C(=O)N3CCOc4cc(F)ccc43)c12  hepatocyte CLint at 1 µM    23 µL/min/1e6 cells
10  Cc1nn(C(C)(C)C)c2nc(C3CC3)cc(C(=O)N3CCOc4ccc(F)cc43)c12  hepatocyte CLint at 1 µM    22 µL/min/1e6 cells

Name the recorded hepatocyte CLint at 1 µM of the item Cc1nn(C(C)C)c2nc(C3CC3)cc(C(=O)N3CCOc4ccccc43)c12 in your answer.
> 92 µL/min/1e6 cells

Name the recorded hepatocyte CLint at 1 µM of the item Cc1nn(C(C)(C)C)c2nc(C3CC3)cc(C(=O)N3CCOc4ccccc43)c12 in your answer.
49 µL/min/1e6 cells

Name the recorded hepatocyte CLint at 1 µM of the item COc1nn(C(C)(C)C)c2nc(C3CC3)cc(C(=O)N3CCOc4ccccc43)c12 in your answer.
19 µL/min/1e6 cells
